Target: MDM2 (Homo sapiens, UniProt Q00987)
Sequence (Q00987 1-125): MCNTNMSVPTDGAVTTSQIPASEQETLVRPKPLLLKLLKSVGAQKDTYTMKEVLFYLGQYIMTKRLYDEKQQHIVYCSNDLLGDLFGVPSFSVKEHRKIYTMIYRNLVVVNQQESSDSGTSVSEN
Assay: Competitive fluorescence polarization assay for MDM2
Type: binding
Conditions: Table 26B; competitive FP; read-out: Ki (MDM2)
Quantity Name: Ki

CC(=O)N[C@@H](CC(C)C)C(=O)N[C@H](C(=O)N[C@@H](Cc1ccccc1)C(=O)N[C@]1(C)CCCCCCn2nnc(c2-c2ccccc2)CCC[C@@](C)(C(=O)N[C@@H](CO)C(=O)N[C@@H](C)C(=O)N[C@@H](C)C(N)=O)NC(=O)[C@H](CC2CCC2)NC(=O)[C@H](CCC(N)=O)NC(=O)[C@H](C)NC(=O)[C@H](Cc2c[nH]c3ccccc23)NC(=O)[C@H](Cc2ccc(O)cc2)NC(=O)[C@H](CCC(=O)O)NC1=O)[C@@H](C)O [SP465, Ac-LTF$4rn6EYWAQCba5Ph-$4a5SAA-NH2]    < 10 nM
CC(=O)N[C@@H](CC(C)C)C(=O)N[C@H](C(=O)N[C@@H](Cc1ccccc1)C(=O)N[C@]1(C)CCCCCCn2nnc(c2I)CCC[C@@](C)(C(=O)N[C@@H](CO)C(=O)N[C@@H](C)C(=O)N[C@@H](C)C(N)=O)NC(=O)[C@H](CC2CCC2)NC(=O)[C@H](CCC(N)=O)NC(=O)[C@H](C)NC(=O)[C@H](Cc2c[nH]c3ccccc23)NC(=O)[C@H](Cc2ccc(O)cc2)NC(=O)[C@H](CCC(=O)O)NC1=O)[C@@H](C)O [SP457, Ac-LTF$4rn6EYWAQCba5I-$4a5SAA-NH2]    < 10 nM
CC(=O)N[C@@H](CC(C)C)C(=O)N[C@H](C(=O)N[C@@H](C)C(=O)N[C@]1(C)CCCCCCn2cc(nn2)CCC[C@@](C)(C(=O)N[C@@H](CO)C(=O)N[C@@H](C)C(=O)N[C@@H](C)C(N)=O)NC(=O)[C@H](CC2CCC2)NC(=O)[C@H](CCC(N)=O)NC(=O)[C@H](C)NC(=O)[C@H](Cc2c[nH]c3ccccc23)NC(=O)[C@H](Cc2ccc(O)cc2)NC(=O)[C@H](CCC(=O)O)NC1=O)[C@@H](C)O [SP460, Ac-LTA$4rn6EYWAQCba$4a5SAA-NH2]    > 1000 nM
CCCC[C@H](NC(=O)[C@H](C)NC(=O)[C@H](C)NC(=O)[C@]1(C)CCCc2cn(nn2)CCCCCC[C@@](C)(NC(=O)[C@H](Cc2ccccc2)NC(=O)[C@@H](NC(=O)[C@H](CC(C)C)NC(C)=O)[C@@H](C)O)C(=O)N[C@@H](C)C(=O)N[C@@H](Cc2ccc(O)cc2)C(=O)N[C@@H](Cc2c[nH]c3ccccc23)C(=O)N[C@@H](C)C(=O)N[C@@H](CCC(N)=O)C(=O)N[C@@H](CC(C)C)C(=O)N1)C(=O)N[C@@H](C)C(N)=O [SP449, Ac-LTF$4rn6AYWAQL$4a5AANleA-NH2]    < 10 nM
CC(=O)N[C@@H](CC(C)C)C(=O)N[C@H](C(=O)N[C@@H](Cc1ccccc1)C(=O)N[C@]1(C)CCCCCCn2nncc2CCC[C@@](C)(C(=O)N[C@@H](CO)C(=O)N[C@@H](C)C(=O)N[C@@H](C)C(N)=O)NC(=O)[C@H](CC2CCC2)NC(=O)[C@H](CCC(N)=O)NC(=O)[C@H](C)NC(=O)[C@H](Cc2c[nH]c3ccccc23)NC(=O)[C@H](Cc2ccc(O)cc2)NC(=O)[C@H](CCC(=O)O)NC1=O)[C@@H](C)O [SP456, Ac-LTF$5rn6EYWAQCba$5a5SAA-NH2]    < 10 nM

Then there is this compound:
Asked: Could you tell me which Ki is on file for CC(=O)N[C@@H](CC(C)C)C(=O)N[C@H](C(=O)N[C@@H](C)C(=O)N[C@]1(C)CCCCCCn2nncc2CCC[C@@](C)(C(=O)N[C@@H](CO)C(=O)N[C@@H](C)C(=O)N[C@@H](C)C(N)=O)NC(=O)[C@H](CC2CCC2)NC(=O)[C@H](CCC(N)=O)NC(=O)[C@H](C)NC(=O)[C@H](Cc2c[nH]c3ccccc23)NC(=O)[C@H](Cc2ccc(O)cc2)NC(=O)[C@H](CCC(=O)O)NC1=O)[C@@H](C)O [SP459, Ac-LTA$5rn6EYWAQCba$5a5SAA-NH2] ?
Given back: > 1000 nM
